system: Desoxycorticosterone Hypertensive Rats; experiment: Cardiovascular activity (blood pressure and heart rate) in desoxycorticosterone hypertensive rats; format: in vivo, male Charles River rats; conditions: 100 mg/kg ip, suspension in 1% tragacanth, 1 hr
Each entry below carries its recorded Mean change in systolic blood pressure from control ± SE.

Completed entries (count: 2):
COc1cc2c(cc1CCNC(=O)c1cc(OC)c(OC)c(OC)c1)CCC2; -27 ± 8 mm Hg
COc1cc2c(cc1CCNC(=O)Cc1ccccc1)CCC2; -32 ± 7 mm Hg

Lab book: Mean change in systolic blood pressure from control ± SE of `COc1cc2c(cc1CCNC(=O)Cc1ccc(OC)c(OC)c1)CCC2` noted as -10 ± 4 mm Hg

Lab book: Mean change in systolic blood pressure from control ± SE of `COc1cc2c(cc1CCNC(=O)c1ccccc1)CCC2` noted as -18 ± 8 mm Hg

Lab book: Mean change in systolic blood pressure from control ± SE of `COc1ccc(CC(=O)NCCc2cc3c(cc2C)CCC3)cc1OC` noted as -2 ± 6 mm Hg

Lab book: Mean change in systolic blood pressure from control ± SE of `COc1ccc(CNCCc2cc3c(cc2C)CCC3)cc1OC.Cl` noted as -58 ± 4 mm Hg
